experiment: IV BCV single ascending dose study: plasma BCV and CDV PK; format: in vivo, human; settings: human, plasma, iv, 10 mg, plasma BCV, Cohort 1, BCV 10 mg 2 h IV infusion, n = 6, geometric mean; read-out: AUC∞

- STRUCTURE STRING: "CCCCCCCCCCCCCCCCOCCCOP(=O)(O)CO[C@H](CO)Cn1ccc(N)nc1=O"
  AUC(0-inf) (ng·h/mL): 1310

* * *

Experiment: 28-day study toxicokinetics of brincidofovir and CDV in plasma
Assay type: in vivo, Sprague-Dawley CD rats
Settings: both sexes, Sprague-Dawley CD, rat, in vivo, iv, 4 mg/kg, plasma brincidofovir, Day 29, 4 mg/kg, combined male and female rats, mean
Description: Blood samples were obtained for the determination of plasma concentrations of brincidofovir and the brincidofovir metabolite, cidofovir. Approximately 0.40 mL of whole blood was obtained via the tail vein from each animal at each time point. Animals were not fasted prior to blood collection. […] Bioanalytical samples were analyzed using a validated liquid chromatographic-triple quadruple mass spectrometric (LC-MS/MS) assay at Pyxant Labs. […]
ATTRIBUTE MEASURED: AUC(0-t) (ng·h/mL)

- STRUCTURE STRING: "CCCCCCCCCCCCCCCCOCCCOP(=O)(O)CO[C@H](CO)Cn1ccc(N)nc1=O"
  REPORTED MEASUREMENT: 2760
